B1: tRNA (parent)
chain: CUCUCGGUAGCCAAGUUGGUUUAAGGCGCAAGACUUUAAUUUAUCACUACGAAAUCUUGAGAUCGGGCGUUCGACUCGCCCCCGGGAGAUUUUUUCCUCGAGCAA

- Variants of: B1
- test-summary: nonsense suppression (GFP-seq) (ratio to wild type); higher = more function; SUP4oc tRNA, yeast GFP reporter sort-seq
This sample holds only a part of the variants without activity.
Hi, to clarify the labels: 1 (yes) covers nonsense suppression from 0.1 upward, 0 (no) covers anything below 0.1.

Would you please look over these solved cases?
| mutation-key | classification |
| --- | --- |
| G10C C56G U71G | 0 (no) |
| A9C U21C A62C C77A | 0 (no) |
| U55C U63A | 1 (yes) |
| C5G G6C A9C A89C | 0 (no) |
| C29G | 0 (no) |

Enquiry: Check this variant for nonsense suppression at or above 0.1: A31U G59A C80U
Return: 0 (no)

Enquiry: Decide: is the reported value of nonsense suppression for C29U U71C equal to or greater than 0.1?
Return: 0 (no)

Enquiry: Does nonsense suppression meet or surpass 0.1 for C1A G73A ?
Return: 1 (yes)

Enquiry: # bool: nonsense suppression of G59U A74C C82U >= 0.1
Return: 0 (no)

Enquiry: Answer whether nonsense suppression of C27G G28A is greater than or equal to 0.1.
Return: 0 (no)
